target: T1, PSMA Fab; assay: clonal phage ELISA on biotinylated PSMA Fab captured on neutravidin plates, anti-M13 HRP detection;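 also: crude clonal phage supernatants tested, before phage were added, wells were pretreated with PSMA antigen in blocking buffer or with blocking buffer only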
T1 construct: also called Anti-PSMA Fab; 006 PSMA Fab
observed_property: phage binding ELISA signal

What value of phage binding ELISA signal has been reported for the following binder? STMLCSPSWMCFGF (tested as crude phage supernatant) [Phage-3872] 1.15

Requested field: phage binding ELISA signal. Item: IEKQCVPQWMCDGF (tested as crude phage supernatant) [Phage-3880] 1.13

Param item = LQQLCVPNWMCVGF (tested as crude phage supernatant) [Phage-3873] ; retrieve measured phage binding ELISA signal. 1.15

Please report the recorded phage binding ELISA signal for EGILCKPSWMCNDF (tested as crude phage supernatant) [Phage-3871] . 1.15

Reported phage binding ELISA signal, binder ESKLCIPDWMCILL (tested as crude phage supernatant) [Phage-3881] : ____ 1.13

What value of measured phage binding ELISA signal is listed for EDALCVPQWMCSGF (tested as crude phage supernatant) [Phage-3877] ? 1.14

For the binder AVIMCEPSWMCEGF (tested as crude phage supernatant) [Phage-3870] , what phage binding ELISA signal is on record? 1.16

Quick one: phage binding ELISA signal for PQIKCIPAWMCDGF (tested as crude phage supernatant) [Phage-3875] ? 1.14
